- Test system: HCI13 (cells of an ER-positive luminal breast cancer xenograft)
- method: cell viability (% of vehicle); higher = less cytotoxic;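 further: PDX cells carrying CMV promoter-driven luciferase, viability read as total photon flux per second by IVIS imaging following D-luciferin, vehicle control 0.1% DMSO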
- condition-details: 10 µM; 72 h
measure: cell viability
Answers are plain numbers.

For orientation, consider the following solved cases.
Prompt line: State, for HCI13, measured cell viability of the compound listed here: O=NN(CCCl)C(=O)NC1CCCCC1 [Lomustine]
Response line: 83.2

Prompt line: Report cell viability from HCI13 testing of O=C(O)CCCN1CCC(OC(c2ccc(Cl)cc2)c2ccccn2)CC1.O=S(=O)(O)c1ccccc1 (stereo unspecified) [Bepotastine Besilate]
Response line: 121

Prompt line: Give cell viability for Cl.O=c1n(CCCN2CCN(c3cccc(Cl)c3)CC2)nc2ccccn12 [Trazodone HCl] tested on HCI13.
Response line: 104

Prompt line: Answer with cell viability of CC1CCN(C(=O)CC#N)CC1N(C)c1ncnc2[nH]ccc12.O=C(O)CC(O)(CC(=O)O)C(=O)O (stereo unspecified) measured for HCI13.
Response line: 104

Prompt line: Give reported cell viability for CC1CC(OC(=O)C(O)c2ccccc2)CC(C)(C)C1 (stereo unspecified) [Cyclandelate] (HCI13)
Response line: 73.5

Prompt line: Specify the recorded cell viability for CC12CCC3c4ccc(O)cc4CC(CCCCCCCCCS(=O)CCCC(F)(F)C(F)(F)F)C3C1CCC2O (stereo unspecified) [Fulvestrant] , system: HCI13.
Response line: 53

Prompt line: Name the value of cell viability reported for `Cc1ccc(Nc2nccc(N(C)c3ccc4c(C)n(C)nc4c3)n2)cc1S(N)(=O)=O.Cl` when tested on HCI13.
Response line: 110

Prompt line: Give HCI13 cell viability for the following compound: Brc1c(NC2=NCCN2)ccc2nccnc12.O=C(O)C(O)C(O)C(=O)O [Brimonidine Tartrate]
Response line: 88.5

# batch size: 8; output cell viability per entry
1. CCC1C(=O)N(C)c2cnc(Nc3ccc(C(=O)NC4CCC(N5CCN(CC6CC6)CC5)CC4)cc3OC)nc2N1C(C)C (stereo unspecified) [BI6727 (Volasertib)]
2. CC(CCC(=O)O)C1CCC2C3C(O)CC4CC(O)CCC4(C)C3CC(O)C12C (stereo unspecified) [Cholic acid]
3. CO[C@@]12[C@H](COC(N)=O)C3=C(C(=O)C(C)=C(N)C3=O)N1C[C@@H]1N[C@@H]12 [Mitomycin C]
4. COc1cccc2c1C(=O)c1c(O)c3c(c(O)c1C2=O)CC(O)(C(=O)CO)CC3OC1CC(N)C(O)C(C)O1 (stereo unspecified) [Doxorubicin]
5. CC(=O)OC1CCC2(C)C(=CCC3C2CCC2(C)C(c4cccnc4)=CCC32)C1 (stereo unspecified) [Abiraterone acetate]
6. NC(=O)c1ncn(C2OC(CO)C(O)C2O)c1O (stereo unspecified) [Mizoribine]
7. Cl.Fc1ccc(C2CCNCC2COc2ccc3c(c2)OCO3)cc1 (stereo unspecified) [Paroxetine HCl]
8. COc1ccccc1OCCNCC(O)COc1cccc2[nH]c3ccccc3c12 (stereo unspecified) [Carvedilol]

Response line:
[84.6, 109, 45, 176, 68, 90.1, 120, 124]

Give me cell viability for each of these compounds, listed below.
1. CCCC(=O)[O-].[Na+] [Sodium butyrate]
2. O=C(CS(=O)Cc1ccco1)NCC=CCOc1cc(CN2CCCCC2)ccn1 (stereo unspecified) [Lafutidine]
3. C=CC[C@@H]1/C=C(\C)C[C@H](C)C[C@H](OC)[C@H]2O[C@@](O)(C(=O)C(=O)N3CCCC[C@H]3C(=O)O[C@H](/C(C)=C/[C@@H]3CC[C@@H](O)[C@H](OC)C3)[C@H](C)[C@@H](O)CC1=O)[C@H](C)C[C@@H]2OC [Tacrolimus (FK506)]
4. N=C(N)c1ccc(OCCCCCOc2ccc(C(=N)N)cc2)cc1.O=S(=O)(O)CCO.O=S(=O)(O)CCO [Pentamidine isethionate]
5. CCCCCOC(=O)Nc1nc(=O)n(C2OC(C)C(O)C2O)cc1F (stereo unspecified) [Capecitabine]
6. OC[C@@H](O)[C@@H](O)[C@H](O)[C@@H](O)CO [D-Sorbitol]
7. CC(C)(C)c1nc(-c2cccc(NS(=O)(=O)c3c(F)cccc3F)c2F)c(-c2ccnc(N)n2)s1
8. Cl.Cl.O=C(O)COCCN1CCN(C(c2ccccc2)c2ccc(Cl)cc2)CC1 (stereo unspecified) [Cetirizine DiHCl]

Response line:
[47.1, 190, 99.2, 180, 165, 109, 187, 147]

For every record below, what is its cell viability?
1. Cl.Cl.O=C1c2c(O)ccc(O)c2C(=O)c2c(NCCNCCO)ccc(NCCNCCO)c21 [Mitoxantrone HCl]
2. CCc1c2c(nc3ccc(OC(=O)N4CCC(N5CCCCC5)CC4)cc13)-c1cc3c(c(=O)n1C2)COC(=O)C3(O)CC (stereo unspecified) [Irinotecan]
3. Cc1c(OCC(F)(F)F)ccnc1CS(=O)c1nc2ccccc2[n-]1.[Na+] (stereo unspecified) [Lansoprazole sodium]
4. Clc1ccc2c(c1)C(N1CCNCC1)=Nc1ccccc1O2 [Amoxapine]
5. CN(N=O)C(=O)NC1C(O)OC(CO)C(O)C1O (stereo unspecified) [Streptozocin]
6. CC(C)(C)c1cc(NC(=O)Nc2ccc(-c3cn4c(n3)sc3cc(OCCN5CCOCC5)ccc34)cc2)no1 [Quizartinib (AC220)]
7. CS(=O)(=O)Nc1ccc([N+](=O)[O-])cc1Oc1ccccc1 [Nimesulide]

Response line:
1: 73.4; 2: 121; 3: 135; 4: 88; 5: 89.4; 6: 94; 7: 109

* * *

- Test system: WHIM2 (cells of a triple-negative basal-like breast cancer xenograft)
- method: cell viability (% of vehicle); higher = less cytotoxic
- condition-details: 10 µM; 72 h
measure: cell viability
Answers are plain numbers.

Solved cases (6 shown):
Prompt line: Write down cell viability measured for item Cc1onc(-c2ccccc2)c1C(=O)NC1C(=O)N2C1SC(C)(C)C2C(=O)[O-].O.[Na+] (configuration not stated) [Oxacillin sodium monohydrate]
Response line: 91

Prompt line: Provide cell viability value for the following compound: CCC1OC(=O)CC(O)C(C)C(OC2OC(C)C(OC3CC(C)(O)C(O)C(C)O3)C(N(C)C)C2O)C(CC=O)CC(C)C(=O)C=CC(C)=CC1COC1OC(C)C(O)C(OC)C1OC.O=C(O)C(O)C(O)C(=O)O (configuration not stated) [Tylosin tartrate]
Response line: 111

Prompt line: Output cell viability of CCCCc1nc(Cl)c(CO)n1Cc1ccc(-c2ccccc2-c2nnn[n-]2)cc1.[K+] [Losartan Potassium (DuP 753)]
Response line: 87

Prompt line: Please supply the value of reported cell viability for the item CC(CN1CC(=O)NC(=O)C1)N1CC(=O)NC(=O)C1 (configuration not stated) [Dexrazoxane]
Response line: 75.7

Prompt line: Look up cell viability of CC(C)C1CCC(C(=O)NC(Cc2ccccc2)C(=O)O)CC1 (configuration not stated) [Nateglinide] and report it.
Response line: 117

Prompt line: Please indicate cell viability recorded for CN(C)CCC=C1c2ccccc2CCc2ccccc21.Cl [Amitriptyline HCl]
Response line: 100

Further cases:
Prompt line: Annotate the compound CC=C1NC(=O)C2CSSCCC=CC(CC(=O)NC(C(C)C)C(=O)N2)OC(=O)C(C(C)C)NC1=O (configuration not stated) [Romidepsin (FK228, depsipeptide)] with its measured cell viability.
Response line: 34.4

* * *

- Tested on: WHIM30 (cells of a triple-negative basal-like breast cancer xenograft)
- method: cell viability (% of vehicle); higher = less cytotoxic
- condition-details: 10 µM; 72 h
Counter-ions that a name gives are not always drawn.
What cell viability was measured for each of the following?

Guide cases for cell viability, answers given:
Prompt line: Provide cell viability value for the following compound: CC[C@H](C)[C@@H]1NC(=O)[C@H](Cc2ccc(O)cc2)NC(=O)[C@@H](N)CSSC[C@@H](C(=O)N2CCC[C@H]2C(=O)N[C@@H](CC(C)C)C(=O)NCC(N)=O)NC(=O)[C@H](CC(N)=O)NC(=O)[C@H](CCC(N)=O)NC1=O [Oxytocin]
Response line: 134

Prompt line: Indicate its recorded cell viability; the compound in question is CN1CCN2c3ncccc3Cc3ccccc3C2C1 (centres undefined) [Mirtazapine]
Response line: 138

Prompt line: Please supply the value of reported cell viability for the item COC(=O)C1=C(C#N)NC(C)=C(C(=O)OC(C)C)C1c1cccc([N+](=O)[O-])c1 (centres undefined) [Nilvadipine]
Response line: 83.4

Prompt line: Look up and report measured cell viability for this entry: CN[C@H](CC(C)C)C(=O)N[C@H]1C(=O)N[C@@H](CC(N)=O)C(=O)N[C@H]2C(=O)N[C@H]3C(=O)N[C@H](C(=O)N[C@H](C(=O)O)c4cc(O)cc(O)c4-c4cc3ccc4O)[C@H](O)c3ccc(c(Cl)c3)Oc3cc2cc(c3O[C@@H]2O[C@H](CO)[C@@H](O)[C@H](O)[C@H]2O[C@H]2C[C@](C)(N)[C@H](O)[C@H](C)O2)Oc2ccc(cc2Cl)[C@H]1O [Vancomycin hydrochloride]
Response line: 148

Prompt line: Give cell viability for the following compound: OC[C@@H](O)[C@@H](O)[C@H](O)[C@H](O)CO [D-Mannitol]
Response line: 115

Prompt line: Output measured cell viability for this item: C[N+](C)(CCOc1ccccc1)Cc1ccccc1.O=C(O)c1cc2ccccc2cc1[O-] [Bephenium Hydroxynaphthoate]
Response line: 151

Prompt line: Identify the reported cell viability for the following entry. Cl.O=C(Nc1ccccc1)OCC(CN1CCCCC1)OC(=O)Nc1ccccc1 (centres undefined) [Diperodon HCl]
Response line: 167

Prompt line: Specify measured cell viability for CCOC(=O)NC1CCC2C(C1)CC1C(=O)OC(C)C1C2C=Cc1ccc(-c2cccc(F)c2)cn1 (centres undefined) [Vorapaxar] .
Response line: 72.6

Batch request: cell viability for each of the following compounds.
1. OCCOc1ccc(C(=C(CCCl)c2ccccc2)c2ccccc2)cc1 [Ospemifene]
2. CCN1CCN(c2cc3c(cc2F)c(=O)c(C(=O)O)cn3C2CC2)CC1 [Enrofloxacin]
3. COc1c(C)c2c(c(O)c1CC=C(C)CCC(=O)OCCN1CCOCC1)C(=O)OC2 [Mycophenolate Mofetil]
4. CCCCc1oc2ccc(NS(C)(=O)=O)cc2c1C(=O)c1ccc(OCCCN(CCCC)CCCC)cc1.Cl [Dronedarone HCl]
5. COc1cc(C2c3cc4c(cc3C(OC3OC5COC(c6cccs6)OC5C(O)C3O)C3COC(=O)C23)OCO4)cc(OC)c1O (centres undefined) [Teniposide]
6. NC(=O)C1CCCc2c1[nH]c1ccc(Cl)cc21 (centres undefined)
7. CCCCCOc1ccc(-c2ccc(-c3ccc(C(=O)N[C@H]4C[C@@H](O)[C@@H](O)NC(=O)[C@@H]5[C@@H](O)[C@@H](C)CN5C(=O)[C@H]([C@@H](C)O)NC(=O)[C@H]([C@H](O)[C@@H](O)c5ccc(O)cc5)NC(=O)[C@@H]5C[C@@H](O)CN5C(=O)[C@H]([C@@H](C)O)NC4=O)cc3)cc2)cc1 [Anidulafungin]

Response line:
148
80.5
130
33.3
96.6
161
112
